molecular target: UniProt:Q8N6T7; test: Inhibition of human SIRT6 (1 to 294 residues) expressed in Escherichia coli Rosetta (DE3) at 333 uM using H3K9AcWW as substrate preincubated for 15 mins followed by substrate addition measured after 1 hr by HPLC analysis relative to control
Sequence (Q8N6T7 whole entry, the tested form may be a part): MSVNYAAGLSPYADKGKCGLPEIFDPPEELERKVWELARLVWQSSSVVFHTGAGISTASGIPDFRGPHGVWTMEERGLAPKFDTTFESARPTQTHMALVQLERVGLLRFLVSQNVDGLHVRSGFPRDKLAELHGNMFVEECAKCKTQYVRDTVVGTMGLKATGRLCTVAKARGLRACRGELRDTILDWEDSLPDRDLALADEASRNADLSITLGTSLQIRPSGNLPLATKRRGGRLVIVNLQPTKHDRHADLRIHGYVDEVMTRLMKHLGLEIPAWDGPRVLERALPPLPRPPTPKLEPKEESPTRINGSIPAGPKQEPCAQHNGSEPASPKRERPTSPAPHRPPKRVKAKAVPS
Active and inactive are the calls of the source. The rule behind the calls is not given here.
quantity kind: inhibition

Recorded results for 8 compounds are shown here.
O=C(O)CNC(=O)CCCSC[C@H](NC(=O)OCc1ccccc1)C(=O)Nc1ccccc1	53%
O=C(O)CCCNC(=O)CCCSC[C@H](NC(=O)OCc1ccccc1)C(=O)Nc1ccccc1	35%
CCCCCCCCCCNC(=O)CCCSC[C@H](NC(=O)OCc1ccccc1)C(=O)Nc1ccccc1	28%
NC(=O)CCCSC[C@H](NC(=O)OCc1ccccc1)C(=O)Nc1ccccc1	11%
CCCCCCNC(=O)CCCSC[C@H](NC(=O)OCc1ccccc1)C(=O)Nc1ccccc1	inactive
O=C(CCCSC[C@H](NC(=O)OCc1ccccc1)C(=O)Nc1ccccc1)NCc1ccc([N+](=O)[O-])cc1	inactive
O=C(CCCSC[C@H](NC(=O)OCc1ccccc1)C(=O)Nc1ccccc1)NCc1ccccc1	30%
CCCCCCCCCCCCCNC(=O)CCCSC[C@H](NC(=O)OCc1ccccc1)C(=O)Nc1ccccc1	31%

Input: What reported inhibition corresponds to `CCCCNC(=O)CCCSC[C@H](NC(=O)OCc1ccccc1)C(=O)Nc1ccccc1` on UniProt:Q8N6T7?
Output: 26%

Input: // same read-out, input: `CCCCCCCCNC(=O)CCCSC[C@H](NC(=O)OCc1ccccc1)C(=O)Nc1ccccc1`
Output: inactive

Input: // same read-out, input: `CNC(=O)CCCSC[C@H](NC(=O)OCc1ccccc1)C(=O)Nc1ccccc1`
Output: inactive

Input: // same read-out, input: `O=C(O)CCNC(=O)CCCSC[C@H](NC(=O)OCc1ccccc1)C(=O)Nc1ccccc1`
Output: 43%

Input: // same read-out, input: `CCNC(=O)CCCSC[C@H](NC(=O)OCc1ccccc1)C(=O)Nc1ccccc1`
Output: 15%

====

molecular target: NAD-dependent protein deacetylase sirtuin-2 (Homo sapiens) (UniProt Q8IXJ6); assay: Inhibition of human N-terminal His6-SUMO-tagged SIRT2 (38 to 356 residues) expressed in Escherichia coli BL21 at 333 uM using H3K9AcWW as substrate preincubated for 15 mins followed by substrate addition measured after 1 hr by HPLC analysis relative to control
Sequence (Q8IXJ6 whole entry, the tested form may be a part): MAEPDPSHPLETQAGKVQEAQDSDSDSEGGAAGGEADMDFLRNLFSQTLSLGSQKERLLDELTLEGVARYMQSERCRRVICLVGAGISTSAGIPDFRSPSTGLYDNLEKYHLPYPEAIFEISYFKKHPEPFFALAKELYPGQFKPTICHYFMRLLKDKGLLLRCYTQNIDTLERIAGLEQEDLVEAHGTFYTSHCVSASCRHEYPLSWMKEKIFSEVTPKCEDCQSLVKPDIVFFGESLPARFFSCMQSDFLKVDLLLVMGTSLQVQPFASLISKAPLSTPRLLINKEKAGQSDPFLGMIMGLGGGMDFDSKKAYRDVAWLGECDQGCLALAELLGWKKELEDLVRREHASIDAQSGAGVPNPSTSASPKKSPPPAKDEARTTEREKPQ
quantity kind: inhibition

Recorded results for 2 compounds are shown here.
CCCCCCCCCCCCCNC(=O)CCCSC[C@H](NC(=O)OCc1ccccc1)C(=O)Nc1ccccc1	20%
CCCCNC(=O)CCCSC[C@H](NC(=O)OCc1ccccc1)C(=O)Nc1ccccc1	25%

Okay, now this compound:
Input: Given the entry `CCCCCCCCCCNC(=O)CCCSC[C@H](NC(=O)OCc1ccccc1)C(=O)Nc1ccccc1` , report its measured inhibition.
Output: 61%

====

biological target: NAD-dependent protein deacetylase sirtuin-2 (Homo sapiens); test: Inhibition of human N-terminal His6-SUMO-tagged SIRT2 (38 to 356 residues) expressed in Escherichia coli BL21 at 250 uM using H3K9AcWW as substrate preincubated for 15 mins followed by substrate addition measured after 1 hr by HPLC analysis relative to control
Residues, ends and D or L forms follow the SMILES beside them. *: point of attachment. X3 = CCCCCCCCNC(=O)CCC*; X13 = CCCCCCNC(=O)CCC*; X8 = O=C(O)CNC(=O)CCC*
quantity kind: inhibition (%)
Form entry: value (%) — number only.

Recorded results for 2 compounds are shown here.
CCCCCCCCNC(=O)CCCSC[C@H](NC(=O)[C@H](CCCNC(=N)N)NC(=O)[C@H](C)NC(=O)[C@@H](NC(=O)[C@H](CCC(N)=O)NC(=O)[C@@H](N)CCCCN)[C@@H](C)O)C(=O)N[C@@H](CO)C(=O)N[C@H](C(=O)NCC(=O)NCC(=O)N[C@@H](CCCCN)C(=O)O)[C@@H](C)O (H-KQTARC(X3)STGGK-OH)	66
CCCCCCNC(=O)CCCSC[C@H](NC(=O)[C@H](CCCNC(=N)N)NC(=O)[C@H](C)NC(=O)[C@@H](NC(=O)[C@H](CCC(N)=O)NC(=O)[C@@H](N)CCCCN)[C@@H](C)O)C(=O)N[C@@H](CO)C(=O)N[C@H](C(=O)NCC(=O)NCC(=O)N[C@@H](CCCCN)C(=O)O)[C@@H](C)O (H-KQTARC(X13)STGGK-OH)	20

Okay, now this compound:
Input: Given the entry C[C@H](NC(=O)[C@@H](NC(=O)[C@H](CCC(N)=O)NC(=O)[C@@H](N)CCCCN)[C@@H](C)O)C(=O)N[C@@H](CCCNC(=N)N)C(=O)N[C@@H](CSCCCC(=O)NCC(=O)O)C(=O)N[C@@H](CO)C(=O)N[C@H](C(=O)NCC(=O)NCC(=O)N[C@@H](CCCCN)C(=O)O)[C@@H](C)O (H-KQTARC(X8)STGGK-OH) , report its measured inhibition.
Output: 28
